- target-system: FLNA pentapeptide of SEQ ID NO: 1 (Bn-VAKGL) (Homo sapiens, UniProt P21333)
- method-description: FITC-NLX-based FLNA screening assay (inhibition of FITC-naloxone binding to Bn-VAKGL on streptavidin plates)
- test-context: read-out: Percent Binding Inhibition, FLNA-binding compound 1 μM; 10 nM FITC-NLX
recorded-endpoint: inhibition at 1 µM (%)
Entry rule: numbers only, all in %.

Challenge: Dear colleague, I am looking for the recorded inhibition at 1 µM of the following molecule: COc1c2c(cc3c1C(CC(=O)c1ccc(N4CCOCC4)cc1)[N+](C)(C)CC3)OCO2 (stereo not shown)
Response given: 54.8

Challenge: Entry under review: CC1CCC(C(C)C)C(OCC(O)Cn2cccc2)C1 (stereo not shown) . Reported inhibition at 1 µM?
Response given: 56.6

Challenge: Bench note: what inhibition at 1 µM did COc1c2c(cc3c1C(CC(=O)Cc1ccc(Br)cc1)[N+](C)(C)CC3)OCO2 (stereo not shown) show?
Response given: 55.8

The record that follows has no inhibition at 1 µM shown yet.
Challenge: Entry under review: COc1c2c(cc3c1C(CC(=O)Cc1ccccc1C)N(C)CC3)OCO2 (stereo not shown) . Reported inhibition at 1 µM?
Response given: 47.6

###

- System: mu opiate receptor (MOR)
- method-description: MOR agonist activity using [35S]GTPγS binding assay in striatal membranes
- Format: biochemical
- test-context: Series C-1; 1 μM compound + 1 μM β-FNA
recorded-endpoint: Concentration of FLNA-Binding Compound as Agonist 1 μM + BFNA (%)
Form entry: value (%) — number only.

Challenge: Need Concentration of FLNA-Binding Compound as Agonist 1 μM + BFNA of CC(=O)c1ccc(C(=O)N2CCC3(CC2)OCCN3S(=O)(=O)c2ccc(C(C)=O)cc2)cc1 , thanks.
Response given: 42.7

Challenge: Endpoint output: Concentration of FLNA-Binding Compound as Agonist 1 μM + BFNA of CC(=O)c1ccc(C(=O)N2CCOC23CCN(S(=O)(=O)c2ccc(C(C)=O)cc2)CC3)cc1 . Value?
Response given: 93.1

Challenge: Given the entry O=S(=O)(c1ccc(F)cc1)N1CCC2(CC1)OCCN2S(=O)(=O)c1ccc(F)cc1 , report its measured Concentration of FLNA-Binding Compound as Agonist 1 μM + BFNA.
Response given: 16.6

Challenge: For the molecule shown here, COc1ccc(C(=O)N2CCOC23CCN(S(=O)(=O)c2ccc(OC)cc2)CC3)cc1 , give the reported Concentration of FLNA-Binding Compound as Agonist 1 μM + BFNA.
Response given: 52.8

New cases:
Challenge: // query Concentration of FLNA-Binding Compound as Agonist 1 μM + BFNA value for entry O=C(O)c1ccc(C(=O)N2CCC3(CC2)OCCN3S(=O)(=O)c2ccc(C(=O)O)cc2)cc1
Response given: 90.7

Challenge: What value of measured Concentration of FLNA-Binding Compound as Agonist 1 μM + BFNA is listed for O=S(=O)(c1ccc(C(F)(F)F)cc1Br)N1CCC2(CC1)OCCN2S(=O)(=O)c1ccc(C(F)(F)F)cc1Br ?
Response given: 177.1

Challenge: // lookup Concentration of FLNA-Binding Compound as Agonist 1 μM + BFNA for O=S(=O)(c1ccc(Br)cc1C(F)(F)F)N1CCC2(CC1)OCCN2S(=O)(=O)c1ccc(Br)cc1C(F)(F)F
Response given: 165.9

###

- System: mu opiate receptor (MOR)
- method-description: MOR agonist activity using [35S]GTPγS binding assay in striatal membranes
- Type: biochemical
- test-context: 1 μM compound + BFNA relative to DAMGO + BFNA
recorded-endpoint: % DAMGO + BFNA
Field note: include the unit after the figure.

Challenge: Provide the documented % DAMGO + BFNA with mu opiate receptor (MOR) as the system for CC1CCC(C(C)C)C(OCC(O)CN2CCCc3ccccc32)C1 (stereo not shown)
Response given: 182.0%

Challenge: Identify the measured % DAMGO + BFNA of OC(COc1ccc(Br)c(F)c1)CN1CCCCC1 (stereo not shown) for mu opiate receptor (MOR).
Response given: 150.1%

Challenge: Form field: % DAMGO + BFNA recorded for OC(COc1ccc(Br)c(F)c1)CN1CCSCC1 (stereo not shown) with mu opiate receptor (MOR) (enter value)
Response given: 214.8%

Challenge: # value lookup — system mu opiate receptor (MOR), readout % DAMGO + BFNA, item CC1CN(CC(O)COC2CCCCC2)CC(C)O1 (stereo not shown)
Response given: 187.9%

Challenge: Fill in the recorded % DAMGO + BFNA for this molecule, with mu opiate receptor (MOR) as test system: CC1CCC(C(C)C)C(OCC(O)CN(C(C)C)C(C)C)C1 (stereo not shown)
Response given: 141.5%

###

- Tested on: mu opiate receptor (MOR)
- method-description: MOR agonist activity using [35S]GTPγS binding assay in striatal membranes
- Assay type: biochemical
- test-context: Series C-2; 1 μM compound, relative to DAMGO
recorded-endpoint: % DAMGO (1 μM) (%)
Supply the numeric figure in %, leaving out any unit text.

Challenge: # lookup: % DAMGO (1 μM) of CN1CCC2(CC1)NC(=O)CN2Cc1ccccc1 [Compound C0104M]
Response given: 96.3

---
Challenge: Give its % DAMGO (1 μM) value. Item: COc1ccc(S(=O)(=O)N2CCC3(CC2)NCCO3)cc1
Response given: 105.6

Challenge: Field request: % DAMGO (1 μM) | item: O=C1CN(Cc2ccccc2)C2(CCN(C3CCCCC3)CC2)N1 [C0137M(P7)]
Response given: 78.1

Challenge: Which measured % DAMGO (1 μM) value corresponds to COc1ccc(S(=O)(=O)N2CCOC23CCN(CC2CC2)CC3)cc1 [Compound C0090M] ?
Response given: 155.2

Challenge: Which value of % DAMGO (1 μM) has been reported for COc1ccc(S(=O)(=O)N2CCOC23CCN(C(C)C)CC3)cc1 [Compound C0133M] in the records?
Response given: 96.6

###

- System: mu opiate receptor (MOR)
- method-description: MOR agonist activity using [35S]GTPγS binding assay in striatal membranes
- Format: biochemical
- test-context: Series B; 1 μM compound + β-FNA, relative to DAMGO + BFNA
// NB: equality with 60% counts as no (0); only % DAMGO + BFNA strictly below is yes (1)

Solved entries (count: 5):
Challenge: State whether 60% exceeds % DAMGO + BFNA recorded for COc1ccc(C(=O)CC2c3c(cc4c(c3OC)OCO4)CC[N+]2(C)C)c(O)c1 (stereo not shown) [Compound B0033] .
Response given: no (0)

Challenge: Record COc1c2c(cc3c1C(CC(=O)c1cccc(C(F)(F)F)c1)[N+](C)(C)CC3)OCO2 (stereo not shown) [Compound B0006] : is its % DAMGO + BFNA strictly below 60%?
Response given: yes (1)

Challenge: Item COc1ccc(OC)c(CCC(=O)CC2c3c(cc4c(c3OC)OCO4)CC[N+]2(C)C)c1 (stereo not shown) [Compound B0044] : % DAMGO + BFNA beneath 60%, strictly?
Response given: no (0)

Challenge: Lab log: compare recorded % DAMGO + BFNA with 60%; is it strictly lower for COc1ccccc1CC(O)CC1c2c(cc3c(c2OC)OCO3)CC[N+]1(C)C (stereo not shown) [Compound B0032] ?
Response given: yes (1)

Challenge: Dear reviewer, please state whether COc1c2c(cc3c1C(CC(=O)CCc1ccc(O)cc1)[N+](C)(C)CC3)OCO2 (stereo not shown) [Compound B0028] has % DAMGO + BFNA strictly beneath 60%.
Response given: no (0)

---
Challenge: Consider COCOc1ccc(C(=O)CC2c3c(cc4c(c3OC)OCO4)CC[N+]2(C)C)cc1C (stereo not shown) [Compound B0041] . Does its % DAMGO + BFNA lie strictly below 60%?
Response given: no (0)

Challenge: Confirm or reject: % DAMGO + BFNA of COc1c2c(cc3c1C(CC(=O)CCc1ccc(Cl)cc1)[N+](C)(C)CC3)OCO2 (stereo not shown) [Compound B0017] lies strictly below 60%
Response given: no (0)

Challenge: Threshold test, % DAMGO + BFNA < 60%: COc1ccc(CCC(=O)CC2c3c(cc4c(c3OC)OCO4)CCN2C)cc1 (stereo not shown) [Compound B0047]
Response given: no (0)

Challenge: For this compound, is % DAMGO + BFNA lower than 60%? COc1cc(F)ccc1C(=O)CC1c2c(cc3c(c2OC)OCO3)CC[N+]1(C)C (stereo not shown) [Compound B0007]
Response given: no (0)

###

% DAMGO (0.1 μM) values, listed per item
- System: mu opiate receptor (MOR)
- method-description: MOR agonist activity using [35S]GTPγS binding assay in striatal membranes
- Assay type: biochemical
- test-context: 0.1 μM compound relative to DAMGO
Write the answer as a number in %, unit excluded.

Known % DAMGO (0.1 μM) results, listed for orientation:
Challenge: If you can, please state the reported % DAMGO (0.1 μM) value of CC1CCC(C(C)C)C(OCC(O)CN2CCCCCCC2)C1 (stereo not shown) .
Response given: 83.2

Challenge: What value of measured % DAMGO (0.1 μM) is listed for CC1CN(CC(O)COc2ccc(Br)c(F)c2)CC(C)O1 (stereo not shown) ?
Response given: 108.4

Challenge: Requested read-out: % DAMGO (0.1 μM). Entry: OC(COc1ccc(Br)c(F)c1)CN1CCc2ccccc2C1 (stereo not shown)
Response given: 79.6

Others:
Challenge: May I ask what % DAMGO (0.1 μM) has been recorded for CC1CCN(CC(O)COC2CC(C)CCC2C(C)C)CC1 (stereo not shown) ?
Response given: 113.8

Challenge: Bench note: what % DAMGO (0.1 μM) did COc1ccc(OCC(O)CN2CCc3cc4c(c(OC)c3C2)OCO4)cc1 (stereo not shown) show?
Response given: 74.7

Challenge: Which % DAMGO (0.1 μM) value belongs to COc1ccc(OCC(O)CN2CCc3ccccc3C2)cc1 (stereo not shown) ?
Response given: 46.5

Challenge: Give the measured % DAMGO (0.1 μM) of CC1CN(CC(O)COc2ccc(Cl)cc2)CC(C)O1 (stereo not shown) .
Response given: 118.8

Challenge: If you can, please state the reported % DAMGO (0.1 μM) value of CCN(CC)CC(O)COC1CC(C)CCC1C(C)C (stereo not shown) .
Response given: 115.6

Challenge: # % DAMGO (0.1 μM) lookup, item OC(COc1cccc(C(F)(F)F)c1)CN1CCc2ccccc2C1 (stereo not shown)
Response given: 44.4

Challenge: Any idea what % DAMGO (0.1 μM) was measured for CC1CN(CC(O)COc2ccccc2)CC(C)O1 (stereo not shown) ?
Response given: 33.2

The origin of these recorded values is patent US10363239B2.
